# Subject Of Test: UniProt:P29275
# Sequence (P29275 whole entry): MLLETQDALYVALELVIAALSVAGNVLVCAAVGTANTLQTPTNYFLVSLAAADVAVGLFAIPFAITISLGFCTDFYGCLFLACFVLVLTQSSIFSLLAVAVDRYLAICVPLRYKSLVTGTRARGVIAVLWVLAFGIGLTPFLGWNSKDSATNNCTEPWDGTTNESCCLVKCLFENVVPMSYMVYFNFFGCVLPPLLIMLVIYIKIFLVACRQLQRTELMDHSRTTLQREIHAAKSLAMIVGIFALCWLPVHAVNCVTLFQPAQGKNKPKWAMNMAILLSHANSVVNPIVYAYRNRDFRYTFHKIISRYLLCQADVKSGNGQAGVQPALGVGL
# Assay Notes: cAMP HTRF assay for Gs coupled receptor, agonist test
# Run Conditions: agonist activity; HEK293 cells expressing recombinant human A2B; read-out: A2BAR EC50
pEC50: −log10 of the molar value.
Reported Property: pEC50

Some molecules with recorded pEC50:
{"Molecule": "COCCOc1ccc(-c2c(C#N)c(N)nc(SCc3ccc4ccoc4c3)c2C#N)cc1", "Subject Of Test": "UniProt:P29275", "Result": "< 5.00"}
{"Molecule": "COCCOc1ccc(-c2c(C#N)c(OC)nc(SCc3cccnc3)c2C#N)cc1", "Subject Of Test": "UniProt:P29275", "Result": "< 5.00"}
{"Molecule": "N#Cc1c(SCc2cccnc2)nc(N2CC(F)(F)C2)c(C#N)c1-c1ccc(OC2COC2)cc1", "Subject Of Test": "UniProt:P29275", "Result": 6.51}

Lookup: What is its pEC50 for UniProt:P29275? Entry: COCCOc1ccc(-c2c(C#N)c(SCC3COC3)nc(N3CC(O)C3)c2C#N)cc1
Found: < 5.00

Lookup: What is its pEC50 for UniProt:P29275? Entry: N#Cc1c(N)nc(SCC2CCO2)c(C#N)c1-c1ccc(OCCO)cc1 (stereo not shown)
Found: 6.75

Lookup: What is its pEC50 for UniProt:P29275? Entry: COCCOc1ccc(-c2c(C#N)c(SCc3cnccn3)nc(N3CC(F)C3)c2C#N)cc1
Found: < 5.00

Lookup: What is its pEC50 for UniProt:P29275? Entry: COCCOc1ccc(-c2c(C#N)c(N)nc(SCc3cccc4[nH]cnc34)c2C#N)cc1
Found: < 5.00

Lookup: What is its pEC50 for UniProt:P29275? Entry: N#Cc1c(SCc2cccnc2)nc(N2CC(O)C2)c(C#N)c1-c1ccc(OC2COC2)cc1
Found: 7.25

Lookup: What is its pEC50 for UniProt:P29275? Entry: COCCOc1ccc(-c2c(C#N)c(N)nc(SCc3ccncn3)c2C#N)cc1
Found: < 5.00

Lookup: What is its pEC50 for UniProt:P29275? Entry: COCCOc1ccc(-c2c(C#N)c(N)nc(SCc3cncc4[nH]ccc34)c2C#N)cc1
Found: < 5.00

---

# Subject Of Test: human Adenosine A1 receptor (Homo sapiens)
# Sequence (P30542 1-326): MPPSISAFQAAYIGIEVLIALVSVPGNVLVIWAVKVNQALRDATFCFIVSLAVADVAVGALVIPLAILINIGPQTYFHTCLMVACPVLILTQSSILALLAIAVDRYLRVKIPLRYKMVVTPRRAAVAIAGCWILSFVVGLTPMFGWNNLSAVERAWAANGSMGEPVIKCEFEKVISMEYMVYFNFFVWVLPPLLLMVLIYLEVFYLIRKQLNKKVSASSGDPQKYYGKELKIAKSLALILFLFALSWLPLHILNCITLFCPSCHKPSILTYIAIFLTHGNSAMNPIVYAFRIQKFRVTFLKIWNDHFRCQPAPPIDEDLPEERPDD
# Assay Notes: GTPγS scintillation proximity assay, agonist testing
# Run Conditions: agonist activity; membrane extracts of CHO-K1 cells expressing recombinant human A1; read-out: A1AR EC50
Reported Property: EC50 (µM)

{"Compound": "N#Cc1c(SCc2cccnc2)nc(N2CC(O)C2)c(C#N)c1-c1ccc(OCCOC(F)F)cc1", "Reported Property": "EC50", "Number": 0.0125}
{"Compound": "N#Cc1c(N)nc(SCC2CCOC2)c(C#N)c1-c1ccc(OC2COC2)cc1 (stereo not drawn)", "Reported Property": "EC50", "Number": 0.0098}
{"Compound": "N#Cc1c(SCC2COC2)nc(N2CCC2)c(C#N)c1-c1ccc(OCCO)cc1", "Reported Property": "EC50", "Number": 0.091}
{"Compound": "Cn1ccc2c(CSc3nc(N)c(C#N)c(-c4ccc(OC5COC5)cc4)c3C#N)cccc21", "Reported Property": "EC50", "Number": 0.0648}

a = COCCOc1ccc(-c2c(C#N)c(N)nc(SCc3ccccc3)c2C#N)cc1
b = CC(=O)NCCSc1nc(N)c(C#N)c(-c2ccc(OCCO)cc2)c1C#N
Lookup: Consider entries a and b . Which has the numerically lower EC50? Lab log: write the label of the selected item as the result.
Found: a
